Reference for the values: patent US20250295763A1

# ASSAY CONTEXT: Table 3; i.m. Days 0 and 14, 0.3 mcg H3N2; 5/50 mcg TLR4 agonist/Synsap; alone: 5 mcg 3D-6A-PHAD, 5 mcg EcML, 10 mcg TLR4-1, 50 mcg Synsap; 5/5 mcg AS01B; D 1
READOUT NAME: Average body weight change (%) Post-dose 1 D 1

compound="COc1ccc(CCCCCCCCNC(=O)[C@H]2O[C@@H](O[C@H]3CCC4(C)C5CC=C6C7CC(C)(C)CC[C@]7(C(=O)O[C@@H]7OC(C)[C@H](O)[C@H](O)C7O[C@@H]7OC(C)[C@H](O[C@@H]8OC[C@@H](O)[C@H](O)C8O)[C@H](O)C7O)C(O)CC6(C)[C@@]5(C)CC[C@H]4[C@@]3(C)C=O)[C@H](O)[C@@H](O)[C@@H]2O)cc1 (stereo partly shown) [Synsap 1]" meas_value=−1.096%
compound="CC1O[C@@H](OC(=O)[C@]23CCC(C)(C)CC2C2=CCC4C5(C)CC[C@H](O[C@@H]6O[C@H](C(=O)NCCCCCCCCc7ccc(Oc8ccccc8)cc7)[C@@H](O)[C@H](O)[C@H]6O)[C@](C)(C=O)[C@@H]5CC[C@]4(C)C2(C)CC3O)C(O[C@@H]2OC(C)[C@H](O[C@@H]3OC[C@@H](O)[C@H](O)C3O)[C@H](O)C2O)[C@@H](O)[C@H]1O (stereo partly shown) [Synsap 3]" meas_value=2.176%
compound="CCCCCCCCCCCCCC(=O)O[C@H](CCCCCCCCCCC)CC(=O)OC1C(NC(=O)C[C@@H](CCCCCCCCCCC)OC(=O)CCCCCCCCCCC)[C@H](OCC2O[C@H](O)C(NC(=O)C[C@H](O)CCCCCCCCCCC)C(OC(=O)C[C@H](O)CCCCCCCCCCC)[C@@H]2O)OC(CO)[C@H]1OP(=O)(O)O (stereo partly shown) [EcML, reference compound]" meas_value=−3.607%
compound="CCCCCCCCCCCCCC(=O)O[C@H](CCCCCCCCCCC)CC(=O)NC1C(OC(=O)C[C@@H](CCCCCCCCCCC)OC(=O)CCCCCCCCCCCCC)[C@H](OP(=O)(O)O)C(CO)O[C@H]1OCC1O[C@H](O)C(NC(=O)C[C@@H](CCCCCCCCCCC)OC(=O)CCCCCCCCCCCCC)C(O)[C@@H]1O.N (stereo partly shown) [Synsap 3D-6A-PHAD, reference compound]" meas_value=−5.362%

----------
# ASSAY CONTEXT: Table 3; same groups; D 2
This section presents compounds with their documented Average body weight change (%) Post-dose 1 D 2 values.
READOUT NAME: Average body weight change (%) Post-dose 1 D 2

compound="COc1ccc(CCCCCCCCNC(=O)[C@H]2O[C@@H](O[C@H]3CCC4(C)C5CC=C6C7CC(C)(C)CC[C@]7(C(=O)O[C@@H]7OC(C)[C@H](O)[C@H](O)C7O[C@@H]7OC(C)[C@H](O[C@@H]8OC[C@@H](O)[C@H](O)C8O)[C@H](O)C7O)C(O)CC6(C)[C@@]5(C)CC[C@H]4[C@@]3(C)C=O)[C@H](O)[C@@H](O)[C@@H]2O)cc1 (stereo partly shown) [Synsap 1]" meas_value=−1.736
compound="CC1O[C@@H](OC(=O)[C@]23CCC(C)(C)CC2C2=CCC4C5(C)CC[C@H](O[C@@H]6O[C@H](C(=O)NCCCCCCCCc7ccc(Oc8ccccc8)cc7)[C@@H](O)[C@H](O)[C@H]6O)[C@](C)(C=O)[C@@H]5CC[C@]4(C)C2(C)CC3O)C(O[C@@H]2OC(C)[C@H](O[C@@H]3OC[C@@H](O)[C@H](O)C3O)[C@H](O)C2O)[C@@H](O)[C@H]1O (stereo partly shown) [Synsap 3]" meas_value=2.174
compound="CCCCCCCCCCCCCC(=O)O[C@H](CCCCCCCCCCC)CC(=O)OC1C(NC(=O)C[C@@H](CCCCCCCCCCC)OC(=O)CCCCCCCCCCC)[C@H](OCC2O[C@H](O)C(NC(=O)C[C@H](O)CCCCCCCCCCC)C(OC(=O)C[C@H](O)CCCCCCCCCCC)[C@@H]2O)OC(CO)[C@H]1OP(=O)(O)O (stereo partly shown) [EcML, reference compound]" meas_value=−1.832
compound="CCCCCCCCCCCCCC(=O)O[C@H](CCCCCCCCCCC)CC(=O)NC1C(OC(=O)C[C@@H](CCCCCCCCCCC)OC(=O)CCCCCCCCCCCCC)[C@H](OP(=O)(O)O)C(CO)O[C@H]1OCC1O[C@H](O)C(NC(=O)C[C@@H](CCCCCCCCCCC)OC(=O)CCCCCCCCCCCCC)C(O)[C@@H]1O.N (stereo partly shown) [Synsap 3D-6A-PHAD, reference compound]" meas_value=−2.900

----------
# System: H3N2
# Type: in vivo, C57BL/6 mice
# ASSAY CONTEXT: Table 4; after the boost (day 28); 5 mcg TLR4 agonist / 50 mcg Synsap, 0.3 mcg H3N2
READOUT NAME: HI titers GMT mean

compound="CC1O[C@@H](OC(=O)[C@]23CCC(C)(C)CC2C2=CCC4C5(C)CC[C@H](O[C@@H]6O[C@H](C(=O)NCCCCCCCCc7ccc(Oc8ccccc8)cc7)[C@@H](O)[C@H](O)[C@H]6O)[C@](C)(C=O)[C@@H]5CC[C@]4(C)C2(C)CC3O)C(O[C@@H]2OC(C)[C@H](O[C@@H]3OC[C@@H](O)[C@H](O)C3O)[C@H](O)C2O)[C@@H](O)[C@H]1O (stereo partly shown) [Synsap 3]" measured_on=H3N2 readout_name="HI titers GMT mean" meas_value=192
compound="CCCCCCCCCCCCCC(=O)O[C@H](CCCCCCCCCCC)CC(=O)NC1C(OC(=O)C[C@@H](CCCCCCCCCCC)OC(=O)CCCCCCCCCCCCC)[C@H](OP(=O)(O)O)C(CO)O[C@H]1OCC1O[C@H](O)C(NC(=O)C[C@@H](CCCCCCCCCCC)OC(=O)CCCCCCCCCCCCC)C(O)[C@@H]1O.N (stereo partly shown) [Synsap 3D-6A-PHAD, reference compound]" measured_on=H3N2 readout_name="HI titers GMT mean" meas_value=806.3
compound="CCCCCCCCCCCCCC(=O)O[C@H](CCCCCCCCCCC)CC(=O)OC1C(NC(=O)C[C@@H](CCCCCCCCCCC)OC(=O)CCCCCCCCCCC)[C@H](OCC2O[C@H](O)C(NC(=O)C[C@H](O)CCCCCCCCCCC)C(OC(=O)C[C@H](O)CCCCCCCCCCC)[C@@H]2O)OC(CO)[C@H]1OP(=O)(O)O (stereo partly shown) [EcML, reference compound]" measured_on=H3N2 readout_name="HI titers GMT mean" meas_value=403.2
compound="COc1ccc(CCCCCCCCNC(=O)[C@H]2O[C@@H](O[C@H]3CCC4(C)C5CC=C6C7CC(C)(C)CC[C@]7(C(=O)O[C@@H]7OC(C)[C@H](O)[C@H](O)C7O[C@@H]7OC(C)[C@H](O[C@@H]8OC[C@@H](O)[C@H](O)C8O)[C@H](O)C7O)C(O)CC6(C)[C@@]5(C)CC[C@H]4[C@@]3(C)C=O)[C@H](O)[C@@H](O)[C@@H]2O)cc1 (stereo partly shown) [Synsap 1]" measured_on=H3N2 readout_name="HI titers GMT mean" meas_value=320

----------
# ASSAY CONTEXT: Table 3; same groups; D 21
READOUT NAME: Average body weight change (%) Post-dose 2 D 21

compound="CCCCCCCCCCCCCC(=O)O[C@H](CCCCCCCCCCC)CC(=O)NC1C(OC(=O)C[C@@H](CCCCCCCCCCC)OC(=O)CCCCCCCCCCCCC)[C@H](OP(=O)(O)O)C(CO)O[C@H]1OCC1O[C@H](O)C(NC(=O)C[C@@H](CCCCCCCCCCC)OC(=O)CCCCCCCCCCCCC)C(O)[C@@H]1O.N (stereo partly shown) [Synsap 3D-6A-PHAD, reference compound]" meas_value=2.331
compound="CCCCCCCCCCCCCC(=O)O[C@H](CCCCCCCCCCC)CC(=O)OC1C(NC(=O)C[C@@H](CCCCCCCCCCC)OC(=O)CCCCCCCCCCC)[C@H](OCC2O[C@H](O)C(NC(=O)C[C@H](O)CCCCCCCCCCC)C(OC(=O)C[C@H](O)CCCCCCCCCCC)[C@@H]2O)OC(CO)[C@H]1OP(=O)(O)O (stereo partly shown) [EcML, reference compound]" meas_value=1.468
compound="CC1O[C@@H](OC(=O)[C@]23CCC(C)(C)CC2C2=CCC4C5(C)CC[C@H](O[C@@H]6O[C@H](C(=O)NCCCCCCCCc7ccc(Oc8ccccc8)cc7)[C@@H](O)[C@H](O)[C@H]6O)[C@](C)(C=O)[C@@H]5CC[C@]4(C)C2(C)CC3O)C(O[C@@H]2OC(C)[C@H](O[C@@H]3OC[C@@H](O)[C@H](O)C3O)[C@H](O)C2O)[C@@H](O)[C@H]1O (stereo partly shown) [Synsap 3]" meas_value=2.329
compound="COc1ccc(CCCCCCCCNC(=O)[C@H]2O[C@@H](O[C@H]3CCC4(C)C5CC=C6C7CC(C)(C)CC[C@]7(C(=O)O[C@@H]7OC(C)[C@H](O)[C@H](O)C7O[C@@H]7OC(C)[C@H](O[C@@H]8OC[C@@H](O)[C@H](O)C8O)[C@H](O)C7O)C(O)CC6(C)[C@@]5(C)CC[C@H]4[C@@]3(C)C=O)[C@H](O)[C@@H](O)[C@@H]2O)cc1 (stereo partly shown) [Synsap 1]" meas_value=6.148
